Attribute Measured: melting point (°C)

Molecular String: COc1ccc(-c2ccc(=O)n(Cc3ccc(C(F)(F)F)nc3)c2)cn1
melting point [°C]: 160

(P) COc1ccc(-c2ccc(=O)n(Cc3ccc(C(F)(F)F)o3)c2)cc1
(Q) COCc1ccc(Cn2cc(-c3ccc(OC)cc3)ccc2=O)cc1
(R) Cl.O=c1ccc(C#Cc2cccnc2)cn1Cc1cccc(F)c1
Sort by melting point, descending. # the answer lists labels in the order requested R, P, Q
(R: 179 °C, P: 120 °C, Q: 72 °C)

###

Attribute Measured: melting point (°C)

Worked cases, answers included:
Compound: CC(C)(O)c1ccc(-c2ccc(=O)n(Cc3ccc(Cl)cc3)c2)cc1 [2-15]
melting point (°C): 157

Compound: CN(C)c1ccc(-c2ccc(=O)n(Cc3ccccc3)c2)cc1 [1-26]
melting point (°C): 153

Compound: O=c1ccc2ccccc2n1Cc1ccc(Cl)cc1 [15-04, 1-(4-Chlorobenzyl)quinolin-2(1H)-one]
melting point (°C): 139

Compound: O=c1ccc(-c2ccc(O)cc2)cn1Cc1ccc(Cl)cc1F [6-21]
melting point (°C): 224

Compound: CS(=O)(=O)NCCOc1ccc(-c2ccc(=O)n(Cc3ccc(Cl)cc3F)c2)cc1 [6-70]
melting point (°C): 139

Compound: CCOCc1ccc(-c2ccc(=O)n(Cc3ccc(Cl)cc3)c2)cc1 [2-25]
melting point (°C): 109

(I) O=c1ccc(-c2cnc3ccccc3c2)cn1Cc1ccc(Cl)cc1 [2-70]
(II) COc1ccc(-c2ccc(=O)n(Cc3ccc(F)cc3)c2)cc1 [4-10]
Sorting ascending by melting point, which comes first: I or II ? Please indicate the selected item by its label. II

###

Attribute Measured: melting point (°C)

Worked cases, answers included:
Compound: CS(=O)(=O)NCc1cccc(-c2ccc(=O)n(Cc3ccc(Cl)cc3F)c2)c1
Value Measured: 110
//
Compound: COc1ccc(-c2ccc(=O)n(Cc3ccc(Cl)cc3)c2)c(F)c1
Value Measured: 89
//
Compound: Cc1ccc(-c2ccc(=O)n(Cc3ccccc3)c2)cc1
Value Measured: 110
//
Compound: CC(=O)NCCOc1ccc(-c2ccc(=O)n(Cc3ccc(Cl)cc3F)c2)cc1
Value Measured: 153
//
Compound: COc1cccc(C(O)c2ccc(=O)n(Cc3ccc(Cl)cc3)c2)c1 (stereo not shown)
Value Measured: 120
//
Compound: COc1ccc(-c2ccc(=O)n(Cc3ccc(F)cc3F)c2)cc1
Value Measured: 109
//
Compound: O=c1ccc(-c2ccc3[nH]ccc3c2)cn1Cc1ccccc1
Value Measured: 93
//
Compound: COc1ccc(-c2ccc(=O)n(Cc3cccc(C#N)c3)c2)cc1
Value Measured: 165

(I) COC(=O)c1ccc(-c2ccc(=O)n(Cc3ccc(Cl)cc3)c2)cc1
(II) O=c1ccc(COc2ccccc2)cn1Cc1ccc(Cl)cc1F
Sort I and II by melting point descending and give the first. Please indicate the selected item by its label. I

(P) C[Si](C)(C)c1ccc(-c2ccc(=O)n(Cc3ccccc3)c2)cc1
(Q) CNC(=O)CCc1ccc(-c2ccc(=O)n(Cc3ccc(Cl)cc3)c2)cc1
(R) COCc1ccc(-c2ccc(=O)n(Cc3ccc(F)c(F)c3)c2)cc1
Sort by melting point, descending. # the answer lists labels in the order requested Q, P, R

(P) CN(C)C(=O)Cc1ccc(-c2ccc(=O)n(Cc3ccc(Cl)cc3)c2)cc1
(Q) O=c1ccc(-c2ccc(Cc3nn[nH]n3)cc2)cn1Cc1ccc(Cl)cc1
(R) CN(C)CCCOc1ccc(-c2ccc(=O)n(Cc3ccc(Cl)cc3F)c2)cc1
Sort by melting point, descending. # the answer lists labels in the order requested Q, P, R

###

Attribute Measured: melting point (°C)

Compound: CC(=O)N(CCCOc1ccc(-c2ccc(=O)n(Cc3ccc(Cl)cc3F)c2)cc1)C(C)=O [6-56]
melting point, °C: 131

(1) CCCOc1ccc(-c2ccc(=O)n(Cc3ccccc3)c2)cc1 [1-17]
(2) O=c1ccc(-c2ccc(CO)cc2)cn1Cc1ccc(Cl)cc1 [2-14]
Sort 1 and 2 by melting point descending and give the first. Please indicate the selected item by its label. 2
(2: 155 °C, 1: 88 °C)

###

Attribute Measured: melting point (°C)

Worked cases, answers included:
Molecular String: COc1ccc(Cn2cc(-c3ccc(OC)cc3)ccc2=O)cc1
melting point (°C): 103

Molecular String: O=c1ccc(-c2ccc3c(c2)CCO3)cn1Cc1ccc(Cl)cc1
melting point (°C): 119

Molecular String: O=c1ccc(-c2ccc3sccc3c2)cn1Cc1ccc(Cl)cc1F
melting point (°C): 110

Molecular String: O=c1ccc(COc2ccccc2)cn1Cc1ccc(F)c(F)c1
melting point (°C): 89

Molecular String: COCCNc1ccc(-c2ccc(=O)n(Cc3ccc(Cl)cc3)c2)cc1
melting point (°C): 106

(a) COc1ccc(-c2ccc(=O)n(Cc3cccc(F)c3)c2)cc1
(b) O=c1ccc(-c2cccc(-c3nn[nH]n3)c2)cn1Cc1ccc(Cl)cc1F
(c) COc1ccc(-c2ccc(=O)n(Cc3ccc(Cl)cc3)c2)cc1
Sort by melting point, descending. # the answer lists labels in the order requested b, c, a

###

Attribute Measured: melting point (°C)

Worked cases, answers included:
Compound: O=C1CCCN1CCOc1ccc(-c2ccc(=O)n(Cc3ccc(Cl)cc3F)c2)cc1 [6-62]
melting point [°C]: 180
//
Compound: O=C(O)Cc1ccc(-c2ccc(=O)n(Cc3ccc(Cl)cc3)c2)cc1 [2-31]
melting point [°C]: 180

(P) O=c1ccc(-c2ccccc2)cn1Cc1nc2ccccc2s1 [6-81]
(Q) CC(C)COCc1ccc(-c2ccc(=O)n(Cc3ccc(Cl)cc3)c2)cc1 [2-26]
Sort P and Q by melting point descending and give the first. Please indicate the selected item by its label. P

(1) CN(C)c1ccc(-c2ccc(=O)n(Cc3ccc(Cl)cc3)c2)cn1 [2-64]
(2) CC(C)COc1ccc(-c2ccc(=O)n(Cc3ccccc3)c2)cc1 [1-18]
Sorting ascending by melting point, which comes first: 1 or 2 ? Please indicate the selected item by its label. 2
(2: 110 °C, 1: 164 °C)

(A) O=c1ccc(-c2ccc(Cl)c(Cl)c2)cn1Cc1ccccc1 [1-12]
(B) Cc1nc(COc2ccc(-c3ccc(=O)n(Cc4ccc(Cl)cc4F)c3)cc2)cs1 [6-66]
Sorting ascending by melting point, which comes first: A or B ? Please indicate the selected item by its label. B
(B: 90 °C, A: 134 °C)

###

Attribute Measured: melting point (°C)

Worked cases, answers included:
Molecular String: O=c1ccc(Br)cn1Cc1ccc(Cl)cc1F
Readout Unit: °C
melting point: 102

Molecular String: CC(=O)NCc1cccc(-c2ccc(=O)n(Cc3ccc(Cl)cc3F)c2)c1
Readout Unit: °C
melting point: 143

Molecular String: Cc1ccc(-c2ccc(=O)n(Cc3ccc(Cl)cc3)c2)s1
Readout Unit: °C
melting point: 101

Molecular String: O=c1ccc(-c2cccs2)cn1Cc1ccc(F)c(F)c1
Readout Unit: °C
melting point: 96

Molecular String: CCCOc1ccc(-c2ccc(=O)n(Cc3ccc(Cl)cc3F)c2)cc1
Readout Unit: °C
melting point: 107

(I) COc1ccc(-c2ccc(=O)n(Cc3ccc(F)c(F)c3)c2)cn1
(II) O=c1ccc(-c2ccc(-c3nnn[nH]3)cc2)cn1Cc1ccc(Cl)cc1F
Sort I and II by melting point descending and give the first. Please indicate the selected item by its label. II

(A) COc1ccc(-c2ccc(=O)n(Cc3ccc([N+](=O)[O-])cc3)c2)cc1
(B) O=c1ccc(-c2ccc(N3CCOCC3)nc2)cn1Cc1ccc(Cl)cc1
(C) NCCCOc1ccc(-c2ccc(=O)n(Cc3ccc(Cl)cc3F)c2)cc1
Sort by melting point, descending. # the answer lists labels in the order requested C, B, A

(I) COc1ccc(-c2ccc(=O)n(Cc3nc4ccccc4s3)c2)cc1
(II) O=c1ccc(-c2ccc(O)cc2)cn1Cc1ccccc1
(III) Nc1cccc(-c2ccc(=O)n(Cc3ccc(Cl)cc3F)c2)c1
Please list these in order of increasing melting point. Thank you! # the answer lists labels in the order requested III, I, II

###

Attribute Measured: melting point (°C)

Worked cases, answers included:
Molecule: N#CCOc1ccc(-c2ccc(=O)n(Cc3ccc(Cl)cc3F)c2)cc1 [6-46]
Readout Unit: °C
melting point: 160

Molecule: CN(C)C(=O)CCc1ccc(-c2ccc(=O)n(Cc3ccc(Cl)cc3)c2)cc1 [2-47]
Readout Unit: °C
melting point: 104

Molecule: O=c1ccc(-c2ccc(S(=O)(=O)N3CCOCC3)cc2)cn1Cc1ccc(Cl)cc1F [6-74]
Readout Unit: °C
melting point: 141

Molecule: COc1ccc(Cn2cc(-c3ccc(C(C)=O)cc3)ccc2=O)cc1 [6-76]
Readout Unit: °C
melting point: 97

Molecule: O=c1ccc(-c2ccc(OCc3nn[nH]n3)cc2)cn1Cc1ccc(Cl)cc1F [6-65]
Readout Unit: °C
melting point: 197

(A) CC(=O)c1ccc(-c2ccc(=O)n(Cc3ccccc3)c2)cc1 [1-23]
(B) COCCOCc1ccc(-c2ccc(=O)n(Cc3ccc(Cl)cc3)c2)cc1 [2-28]
(C) CC(=O)Nc1ccc(-c2ccc(=O)n(Cc3ccc(Cl)cc3F)c2)cc1 [6-58]
Sort by melting point, descending. # the answer lists labels in the order requested C, A, B
(C: 230 °C, A: 118 °C, B: 79 °C)

(a) COc1ccc(-c2ccc(=O)n(Cc3ccc(Cl)cc3F)c2)cn1 [6-51]
(b) CCC(C)c1ccc(-c2ccc(=O)n(Cc3ccc(Cl)cc3)c2)cc1 (stereo not shown) [2-05]
(c) Cl.Nc1ccc(-c2ccc(=O)n(Cc3ccc(Cl)cc3F)c2)cc1
Sort by melting point, descending. # the answer lists labels in the order requested c, a, b
(c: 266 °C, a: 136 °C, b: 73 °C)

(I) COc1cccc(C(=O)c2ccc(=O)n(Cc3ccc(Cl)cc3)c2)c1 [3-12]
(II) CC(C)CCn1cc(-c2cccc(NS(C)(=O)=O)c2)ccc1=O [8-02]
Sorting ascending by melting point, which comes first: I or II ? Please indicate the selected item by its label. I
